# targetOrTestSystem: Oxytocin receptor (Homo sapiens, UniProt P30559)
# Sequence (P30559 whole entry): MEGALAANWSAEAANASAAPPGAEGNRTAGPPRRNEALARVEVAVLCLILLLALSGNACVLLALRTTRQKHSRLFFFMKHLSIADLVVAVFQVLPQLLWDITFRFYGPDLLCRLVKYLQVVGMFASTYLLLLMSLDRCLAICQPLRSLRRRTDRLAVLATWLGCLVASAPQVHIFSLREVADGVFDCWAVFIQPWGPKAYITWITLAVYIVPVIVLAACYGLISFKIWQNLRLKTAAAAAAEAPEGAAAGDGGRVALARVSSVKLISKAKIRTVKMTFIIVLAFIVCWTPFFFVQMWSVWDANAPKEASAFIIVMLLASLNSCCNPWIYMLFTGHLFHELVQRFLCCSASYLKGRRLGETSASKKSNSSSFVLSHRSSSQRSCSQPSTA
# assayOverview: Displacement of [3H]OT from human OT receptor expressed in HEK cells
pIC50: −log10 of the molar value.
Grouping by measured pIC50 is done with the following cut points: low bin = under 6, mid bin = from 6 up to 7, high bin = 7 and over

- compound: "CC[C@H](C)[C@@H]1NC(=O)[C@H](Cc2ccc(O)cc2)NC(=O)[C@@H](N)CSSC[C@@H](C(=O)N2CCCC[C@H]2C(=O)N[C@@H](CC(C)C)C(=O)NCC(N)=O)NC(=O)[C@H](CC(N)=O)NC(=O)[C@H](CCC(N)=O)NC1=O"
  targetOrTestSystem: "Oxytocin receptor (Homo sapiens, UniProt P30559)"
  label: "high bin"
- compound: "CCOc1ccc(C[C@H]2NC(=O)CCSSC[C@@H](C(=O)NC(C)(C)C(=O)N[C@@H](CC(C)C)C(=O)N3Cc4ccccc4C[C@@H]3C(N)=O)NC(=O)[C@H](CC(N)=O)NC(=O)[C@H](CCC(N)=O)NC(=O)[C@H]([C@@H](C)CC)NC2=O)cc1"
  targetOrTestSystem: "Oxytocin receptor (Homo sapiens, UniProt P30559)"
  label: "high bin"

[Q] Which of the defined bands does the recorded pIC50 of CC[C@H](C)[C@@H]1NC(=O)[C@H]2Cc3ccccc3CN2C(=O)CCSSC[C@@H](C(=O)NC(C)(C)C(=O)N[C@@H](CC(C)C)C(=O)NCC(N)=O)NC(=O)[C@H](CC(N)=O)NC(=O)[C@H](CCC(N)=O)NC1=O sit within?
[A] low bin
